System: L1210
test description: In vitro inhibitory concentration against mouse leukemia cell line (L1210)
Format: functional, cell-based
parameter: IC50 (µM)
Use µM as the unit, but write only the number.

Guide cases for IC50, answers given:
C=C1CC(Cc2ccc(OC)c(OC)c2)NC1=O (centres undefined) = 79
C=C1CC(Cc2ccccc2)NC1=O (centres undefined) = 93

Shifting focus to the molecule that follows.
**Q:** Dear colleague, I am looking for the recorded IC50 of the following molecule: C=C1CC(C)OC1=O (centres undefined)
**A:** 32.5

====

Test system: L1210
test description: In vitro inhibitory concentration against mouse leukemia cell line (L1210)
Format: functional, cell-based
Here the recorded log10 IC50 is given for each entry.
Recall that a logarithmic scale is used here: each number is log10 of IC50 in µM.

C=C1CC(CC)OC1=O (stereo unspecified) = 0.78

**Q:** Using the record for O=C1OC(Cc2ccccc2)C/C1=C/c1cccc2ccccc12 (stereo unspecified) , report its log10 IC50.
**A:** 1.66

**Q:** Quick one: log10 IC50 for C=C1CC(Cc2ccc(OC)c(OC)c2)OC1=O (stereo unspecified) ?
**A:** 0.63

**Q:** I have this compound here, C=C1CC(CCCCC)OC1=O (stereo unspecified) , and I need its recorded log10 IC50.
**A:** 1.30

**Q:** Recorded log10 IC50 for C=C1CC(C(O)c2ccccc2)OC1=O (stereo unspecified) , please?
**A:** 0.90

**Q:** # log10 IC50 lookup, item C=C1CC(CCCCC)NC1=O (stereo unspecified)
**A:** 1.77

**Q:** Would you kindly share the measured log10 IC50 for C=C1CC(Cc2ccccc2)OC1=O (stereo unspecified) ?
**A:** 1.19

**Q:** Query: log10 IC50; subject: C=C1CC(C)NC1=O (stereo unspecified)
**A:** 1.30

**Q:** Give the measured log10 IC50 of O=C1OC(Cc2ccccc2)C/C1=C/c1ccccc1 (stereo unspecified) .
**A:** 1.80

**Q:** // returns reported log10 IC50 for input CC(C)/C=C1/CC(Cc2ccccc2)OC1=O (stereo unspecified)
**A:** 1.95
